- target: Bcl-2 protein (Recombinant Human Bcl-2 Protein) (Homo sapiens, UniProt P10415)
- Construct: purchased Novus Biologicals NBP2-34889
- Sequence (P10415 whole entry): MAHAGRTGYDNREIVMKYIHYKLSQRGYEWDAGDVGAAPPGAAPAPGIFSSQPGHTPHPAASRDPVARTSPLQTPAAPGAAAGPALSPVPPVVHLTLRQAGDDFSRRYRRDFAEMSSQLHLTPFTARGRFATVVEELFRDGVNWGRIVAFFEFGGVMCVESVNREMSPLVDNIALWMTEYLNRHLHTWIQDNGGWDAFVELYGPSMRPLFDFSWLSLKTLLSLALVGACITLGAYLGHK
- procedure-text: AS-MS evaluation of binding of the mixture libraries of Examples 8 and 9 to Bcl-2, ASMS ratio (%), Example 11
- details: ASMS ratio, replicate N2; mixtures obtained from Example 9, 10 uM Bcl-2 protein
measured-parameter: AS-MS(%) N2

CCOc1cc(C(C)C(=O)Nc2ccc(C)cc2)cc(N2CCN(c3ccc(C(=O)NS(=O)(=O)c4ccc(N[C@H](CCN5CCOCC5)CSc5ccccc5)c([N+](=O)[O-])c4)cc3)CC2)c1 (stereo partly drawn) [2-2-d1E04-2-0446] ... 45.0

[1] CC(C(=O)Nc1ccc(C(F)(F)F)cc1)c1cc(O)cc(N2CCN(c3ccc(C(=O)NS(=O)(=O)c4ccc(N[C@H](CCN5CCOCC5)CSc5ccccc5)c([N+](=O)[O-])c4)cc3)CC2)c1 (stereo partly drawn) [2-2-d1E04-1-0498]
[2] CC(C(=O)Nc1ccc(F)cc1)c1cc(O)cc(N2CCN(c3ccc(C(=O)NS(=O)(=O)c4ccc(N[C@H](CCN5CCOCC5)CSc5ccccc5)c([N+](=O)[O-])c4)cc3)CC2)c1 (stereo partly drawn) [2-2-d1E04-1-0454]
Dear colleague, could you let me know whether 1 or 2 has the lower recorded AS-MS(%) N2? Thanks. Write down the label of the entry you select. 1

The reported measurements were obtained from patent US20250154686A1.
